Cited source: patent US20080020978A1

molecular target: CGRP1 receptor (CRLR/RAMP1 complex) of human neuroblastoma SK-N-MC cells (human, UniProt Q16602 23-461; O60894 27-148); experiment: cell-based or functional assay
Sequence (Q16602 23-461, chain 1 of 2): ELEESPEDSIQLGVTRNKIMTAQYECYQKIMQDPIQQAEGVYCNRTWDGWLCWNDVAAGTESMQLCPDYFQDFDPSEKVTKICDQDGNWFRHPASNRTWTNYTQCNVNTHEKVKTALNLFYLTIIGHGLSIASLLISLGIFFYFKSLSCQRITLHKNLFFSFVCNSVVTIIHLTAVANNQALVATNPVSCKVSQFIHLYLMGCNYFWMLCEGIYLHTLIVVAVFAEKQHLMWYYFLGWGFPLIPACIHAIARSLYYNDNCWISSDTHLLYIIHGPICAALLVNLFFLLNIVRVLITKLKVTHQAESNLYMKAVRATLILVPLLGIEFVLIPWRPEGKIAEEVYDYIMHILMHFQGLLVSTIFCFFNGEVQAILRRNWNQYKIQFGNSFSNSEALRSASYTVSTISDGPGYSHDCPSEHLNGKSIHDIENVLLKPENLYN
Sequence (O60894 27-148, chain 2 of 2): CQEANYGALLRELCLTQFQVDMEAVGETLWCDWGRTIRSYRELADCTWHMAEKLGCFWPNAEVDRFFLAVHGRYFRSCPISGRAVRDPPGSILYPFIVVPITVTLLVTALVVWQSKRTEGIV
Square brackets hold non-standard residues; d marks the D form. Oic = O=C(O)[C@@H]1C[C@@H]2CCCC[C@@H]2N1; hArg = N=C(N)NCCCC[C@H](N)C(=O)O; Tic = O=C(O)[C@@H]1Cc2ccccc2CN1; Cit = NC(=O)NCCC[C@H](N)C(=O)O; Aib = CC(C)(N)C(=O)O
Class assignment keyed on IC50, ranges lower level: < 4 nM; middle level: ≥ 4 nM and < 7 nM; upper level: ≥ 7 nM

Kindly state the category for this binder: WVTHXLAGLLSXSGGVVXKNFVPTDVGPFAF (Ac-WVTH[Cit]LAGLLS[Cit]SGGVV[hArg]KNFVPTDVGPFAF-NH2) [SEQ ID NO 653]
lower level

GET /class?item= WVTHXLAGLLSXSGGVVXKNFVXTDVGXFAX (Ac-WVTH[Cit]LAGLLS[Cit]SGGVV[hArg]KNFV[Oic]TDVG[Oic]FA[2-Nal]-NH2) [SEQ ID NO 132]
lower level

Which IC50 category applies to WVTHXLAGLLSXSGGVVXKNFVPTDVGXFAF (AC-WVTH[Cit]LAGLLS[Cit]SGGVV[hArg]KNFVPTDVG[Pip]FAF-NH2) [SEQ ID NO 666] here?
upper level

Please indicate the class for WVTHXLAGLLSXSGGVVXKNFVXTDVGPXAF (Ac-WVTH[Cit]LAGLLS[Cit]SGGVV[hArg]KNFV[Oic]TDVGP[Bip]AF-NH2) [SEQ ID NO 134] based on its IC50.
lower level

Tag the class for Ac-WVTH[Cit]LAGLLS[Cit]SGGVVRKNFVPTDVG[Tic]FAF-NH2 [SEQ ID NO 141]
middle level

Returns: class label. Input: WVTHXLAGLLSXSGGVVRKNFVPTDVGPXAF (Ac-WVTH[Cit]LAGLLS[Cit]SGGVVRKNFVPTDVGP[Tic]AF-NH2) [SEQ ID NO 146]
upper level

Band of Ac-WVTH[Cit]LAGLLS[Cit]SGGVV[hArg]KNFVPTDVG[Aib]FAF-NH2 [SEQ ID NO 670] ?
middle level

Band assignment needed for WVTHXLAGLLSXSGGVVXKNFVPTDVGXFAF (AC-WVTH[Cit]LAGLLS[Cit]SGGVV[hArg]KNFVPTDVG[Hyp]FAF-NH2) [SEQ ID NO 668] please.
middle level

Exercise: read the entry WVTHXLAGLLSXSGGVVXKNFVPTDVGXXAF (Ac-WVTH[Cit]LAGLLS[Cit]SGGVV[hArg]KNFVPTDVG[Pip][1-Nal]AF-NH2) [SEQ ID NO 675] and state which class it falls under.
upper level

Using the reported IC50, which band applies to WVTHXLAGLLSXSGGVVXKNFVXTDVGPXAX (Ac-WVTH[Cit]LAGLLS[Cit]SGGVV[hArg]KNFV[Oic]TDVGP[1-Nal]A[2-Nal]-NH2) [SEQ ID NO 133] ?
lower level

Lab note: which band did WVTHXLAGLLSXSGGVVXKNFVXTDVGPFAX (Ac-WVTH[Cit]LAGLLS[Cit]SGGVV[hArg]KNFV[Oic]TDVGPFA[2-Nal]-NH2) [SEQ ID NO 135] land in?
lower level

Sort WVTHXLAGLLSXSGGVVXKNFVPTDVGXFAF (Ac-WVTH[Cit]LAGLLS[Cit]SGGVV[hArg]KNFVPTDVG[Hyp]FAF-NH2) [SEQ ID NO 667] into one of the categories.
middle level

Into which category would you place Ac-[Cit]LAGLLS[Cit]SGGVV[hArg]KNFVPTDVG[Oic]FAF-NH2 [SEQ ID NO 661] ?
upper level
